B1: Calcium-binding protein 2, residues 155 to 219; numbered along this chain, Q9NPB3 (parent)
chain: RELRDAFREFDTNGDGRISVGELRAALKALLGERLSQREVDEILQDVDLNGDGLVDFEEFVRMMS

variants of: B1; experiment: abundance fitness (aPCA) (normalised: wild type 0, dead -1); higher = more abundant; growth selection in yeast, the domain comes from the species named; details: Homo sapiens
Quantity measured: abundance fitness

| Variant spec | Numeric result |
| --- | --- |
| V55P | -0.874 |
| I18V | -0.045 |
| V47D | -0.236 |
| V47Q | 0.013 |
| L44I | 0.072 |
| N13L | -0.974 |
| N50S | -0.092 |
| L30A | -0.255 |
| D11R | -1.18 |
| R8M | -0.043 |
| A25C | 0.177 |
| D41W | -0.158 |
| I18K | -0.691 |
| L30W | -0.245 |
| V55E | -1.02 |
| D46Y | -0.475 |
| E22T | -0.486 |
| R62E | -0.307 |
| G53P | -0.188 |
| G51E | 0.181 |
| E42G | -0.081 |
| G21C | -0.244 |
| V55F | 0.048 |
| N13P | -0.811 |
| F7V | -0.891 |
| L54C | -0.21 |
| D48Y | 0.042 |
| R4N | -0.027 |
| L27R | -0.192 |
| G14Q | 0.023 |
| E2V | -0.357 |
| T12V | -0.351 |
| D5S | -0.382 |
| D11P | -0.992 |
| D46H | -0.366 |
| Q45M | -0.141 |
| E58G | -0.003 |
| D52I | -0.126 |
| E9V | -0.03 |
| D56F | -0.862 |
| V40Q | 0.063 |
| G16V | -1.14 |
| E9M | -0.135 |
| G32P | -0.026 |
| G16Q | -0.223 |
| V47I | -0.204 |
